- protocol text: Volatility and smell of non-salt acetals, neat and embedded in polymer films brushed on polyethylene film and air-dried
- Format: physicochemical
- measurement conditions: embedded in PVP/VA, Eudragit E-100 and Eudragit S-100, brushed on polyethylene films, air-dried

compound	smell nasally detected after drying
CCOC(OCC)c1ccc(O)c(OC)c1	Strong smells
COc1cc(C=O)ccc1O	Strong smells
CC(C)=CCCC(C)CC=O (stereo not shown)	Strong smells
CCOC(CC(C)CCC=C(C)C)OCC (stereo not shown)	Strong smells
